B1: FBXO3 (parent)
chain: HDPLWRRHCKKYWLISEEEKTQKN

variants of: B1; assay: protein stability index of a GFP-peptide fusion (GPS, HEK-293T) (PSI 1-6); higher = more stable; settings: c terminus: a fixed tail appended;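 also: lentivirally expressed fusions sorted by FACS into six bins by GFP to DsRed ratio, PSI derived from sequencing read proportions per bin multiplied by bin number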
Reported protein stability index by item:
Kindly provide the number alone.

Sample answers from the record:
# Mutation key, Quantity kind, Result value
data = [
    ("E17S", "protein stability index", 3.26),
    ("I15W", "protein stability index", 3.19),
    ("I15V", "protein stability index", 3.85),
    ("K11Q", "protein stability index", 3.45),
]

Prompt line: Retrieve protein stability index measured for K20P and print it.
Response line: 2.91

Prompt line: Find the measured protein stability index of I15A and report it.
Response line: 3.38

Prompt line: In one line, give reported protein stability index of the entry D2G .
Response line: 1.62

Prompt line: Give the reported protein stability index for this variant. T21F
Response line: 2.64

Prompt line: Quickly give me recorded protein stability index for S16F
Response line: 2.46
